Reference source: paper PMC10388204

Biological target: rYkt6ΔC (Rattus norvegicus, UniProt Q5EGY4)
Sequence (Q5EGY4 1-193): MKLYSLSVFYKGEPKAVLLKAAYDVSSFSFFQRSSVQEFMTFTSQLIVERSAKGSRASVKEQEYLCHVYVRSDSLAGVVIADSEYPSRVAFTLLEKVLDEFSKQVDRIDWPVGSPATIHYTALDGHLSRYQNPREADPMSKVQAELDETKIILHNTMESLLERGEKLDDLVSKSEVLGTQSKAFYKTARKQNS
measurement_kind: Kd (µM)

chem_smiles=CCCCCCCCCCCCOP(=O)([O-])OCC[N+](C)(C)C experimental_result=38.5

====

Molecular target: yYkt6ΔC (Saccharomyces cerevisiae, UniProt P36015, Q57A/T46L)
Construct: residues 1-195, C-terminal CCIIM motif removed; His6 tag; pET-M3C; E. coli BL21(DE3); not lipidated
Sequence (P36015 1-195 T46L/Q57A): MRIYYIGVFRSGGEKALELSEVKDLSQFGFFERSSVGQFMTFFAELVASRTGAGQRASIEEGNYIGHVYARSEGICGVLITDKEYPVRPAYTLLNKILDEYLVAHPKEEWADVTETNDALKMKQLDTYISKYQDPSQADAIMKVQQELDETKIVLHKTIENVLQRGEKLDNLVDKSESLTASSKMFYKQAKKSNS
Assay: isothermal titration calorimetry
measurement_kind: Kd (µM)

chem_smiles=CCCCCCCCCCCCOP(=O)([O-])OCC[N+](C)(C)C measurement_kind=Kd experimental_result=33.3
